All figures here come from paper PMC9272005.

Biological target: DWM-GLYI (mitochondrial glyoxalase I)
Construct: native activity in Triton X-100-lysed purified mitochondria; isoform not identified
Assay: spectrophotometric GLYI activity assay ([…] nm) in lysed mitochondria, inhibition kinetics
I'd be grateful if you could share measured Ki for these entries.
Numbers only, in µM.

# SMILES, UNIT_DESCRIPTOR, Ki
records = [
    ("COc1cc(/C=C/C(=O)CC(=O)/C=C/c2ccc(O)c(OC)c2)ccc1O", "µM", 20),
]

Consider now this further molecule.
Asked: Which value of Ki has been reported for `O=c1c(O)c(-c2ccc(O)c(O)c2)oc2cc(O)cc(O)c12` in the records?
Given back: 55
